Experiment: Metabolic stability in mouse brain homogenate
Assay type: in vitro ADME
Conditions: male, Swiss, pH 7.4, mouse brain homogenate, 37° C., mean±standard deviation, read-out: T½ Brain
Give measured half-life at 6 μg/μl for each item. Keep answers brief.
Numbers only, in min.

C[C@H](NC(=O)[C@H](CO)NC(=O)[C@H](CCCCN)NC(=O)[C@H](CCCNC(=N)N)NC(=O)C(C)(C)NC(=O)CNC(=O)[C@@H](NC(=O)[C@H](Cc1ccccc1)NC(=O)CNC(=O)CNC(=O)CNCc1ccccc1)[C@@H](C)O)C(=O)N[C@@H](CCCNC(=N)N)C(=O)N[C@@H](CCCCN)C(=O)N[C@@H](CCCNC(=N)N)C(=O)N[C@@H](CCCCN)C(=O)N[C@@H](CC(N)=O)C(=O)N[C@@H](CCC(N)=O)C(N)=O [UFP-111, [Nphe^1,Aib^7,Arg^14,Lys^15]N/OFQ-NH2] ... 11

Item C[C@H](NC(=O)[C@H](CO)NC(=O)[C@H](CCCCN)NC(=O)[C@H](CCCNC(=N)N)NC(=O)C(C)(C)NC(=O)CNC(=O)[C@@H](NC(=O)[C@H](Cc1ccc(F)cc1)NC(=O)CNC(=O)CNC(=O)[C@@H](N)Cc1ccccc1)[C@@H](C)O)C(=O)N[C@@H](CCCNC(=N)N)C(=O)N[C@@H](CCCCN)C(=O)N[C@@H](CCCNC(=N)N)C(=O)N[C@@H](CCCCN)C(=O)N[C@@H](CC(N)=O)C(=O)N[C@@H](CCC(N)=O)C(N)=O [UFP-112, [(pF)Phe^4,Aib^7,Arg^14,Lys^15]N/OFQ-NH2] has what recorded half-life at 6 μg/μl?
11.3

* * *

Experiment: Metabolic stability in mouse plasma
Format: in vitro ADME
Details: male, Swiss, mouse, plasma, pH 7.4, mouse plasma, 37° C., mean±standard deviation; read-out: T½ Plasma
quantity-measured: half-life at 6 μg/μl
Respond with a number, then the unit of measure.

The following compounds have reported results that may help.
CC(C)C[C@H](NC(=O)[C@H](CCCCN)NC(=O)[C@H](CCCNC(=N)N)NC(=O)[C@H](C)NC(=O)[C@H](CO)NC(=O)[C@H](CCCCN)NC(=O)[C@H](CCCNC(=N)N)NC(=O)[C@H](C)NC(=O)CNC(=O)[C@@H](NC(=O)[C@H](Cc1ccccc1)NC(=O)CNC(=O)CNC(=O)[C@@H](N)Cc1ccccc1)[C@@H](C)O)C(=O)N[C@@H](C)C(=O)N[C@@H](CC(N)=O)C(=O)N[C@@H](CCC(N)=O)C(=O)O [N/OFQ, reference compound] ... 1.07 h
C[C@H](NC(=O)[C@H](CO)NC(=O)[C@H](CCCCN)NC(=O)[C@H](CCCNC(=N)N)NC(=O)C(C)(C)NC(=O)CNC(=O)[C@@H](NC(=O)[C@H](Cc1ccccc1)NC(=O)CNC(=O)CNC(=O)CNCc1ccccc1)[C@@H](C)O)C(=O)N[C@@H](CCCNC(=N)N)C(=O)N[C@@H](CCCCN)C(=O)N[C@@H](CCCNC(=N)N)C(=O)N[C@@H](CCCCN)C(=O)N[C@@H](CC(N)=O)C(=O)N[C@@H](CCC(N)=O)C(N)=O [UFP-111, [Nphe^1,Aib^7,Arg^14,Lys^15]N/OFQ-NH2] ... 2.28 h

Kindly review the next compound as well.
Item C[C@H](NC(=O)[C@H](CO)NC(=O)[C@H](CCCCN)NC(=O)[C@H](CCCNC(=N)N)NC(=O)C(C)(C)NC(=O)CNC(=O)[C@@H](NC(=O)[C@H](Cc1ccc(F)cc1)NC(=O)CNC(=O)CNC(=O)[C@@H](N)Cc1ccccc1)[C@@H](C)O)C(=O)N[C@@H](CCCNC(=N)N)C(=O)N[C@@H](CCCCN)C(=O)N[C@@H](CCCNC(=N)N)C(=O)N[C@@H](CCCCN)C(=O)N[C@@H](CC(N)=O)C(=O)N[C@@H](CCC(N)=O)C(N)=O [UFP-112, [(pF)Phe^4,Aib^7,Arg^14,Lys^15]N/OFQ-NH2] has what recorded half-life at 6 μg/μl?
2.78 h
